Origin of values: patent US10308639B2

Record form. Attribute: log10(IC50). Fill in for each entry.
Molecular target: PI3Kδ (Homo sapiens, UniProt O00329)
Construct: made in house
Sequence (O00329 whole entry): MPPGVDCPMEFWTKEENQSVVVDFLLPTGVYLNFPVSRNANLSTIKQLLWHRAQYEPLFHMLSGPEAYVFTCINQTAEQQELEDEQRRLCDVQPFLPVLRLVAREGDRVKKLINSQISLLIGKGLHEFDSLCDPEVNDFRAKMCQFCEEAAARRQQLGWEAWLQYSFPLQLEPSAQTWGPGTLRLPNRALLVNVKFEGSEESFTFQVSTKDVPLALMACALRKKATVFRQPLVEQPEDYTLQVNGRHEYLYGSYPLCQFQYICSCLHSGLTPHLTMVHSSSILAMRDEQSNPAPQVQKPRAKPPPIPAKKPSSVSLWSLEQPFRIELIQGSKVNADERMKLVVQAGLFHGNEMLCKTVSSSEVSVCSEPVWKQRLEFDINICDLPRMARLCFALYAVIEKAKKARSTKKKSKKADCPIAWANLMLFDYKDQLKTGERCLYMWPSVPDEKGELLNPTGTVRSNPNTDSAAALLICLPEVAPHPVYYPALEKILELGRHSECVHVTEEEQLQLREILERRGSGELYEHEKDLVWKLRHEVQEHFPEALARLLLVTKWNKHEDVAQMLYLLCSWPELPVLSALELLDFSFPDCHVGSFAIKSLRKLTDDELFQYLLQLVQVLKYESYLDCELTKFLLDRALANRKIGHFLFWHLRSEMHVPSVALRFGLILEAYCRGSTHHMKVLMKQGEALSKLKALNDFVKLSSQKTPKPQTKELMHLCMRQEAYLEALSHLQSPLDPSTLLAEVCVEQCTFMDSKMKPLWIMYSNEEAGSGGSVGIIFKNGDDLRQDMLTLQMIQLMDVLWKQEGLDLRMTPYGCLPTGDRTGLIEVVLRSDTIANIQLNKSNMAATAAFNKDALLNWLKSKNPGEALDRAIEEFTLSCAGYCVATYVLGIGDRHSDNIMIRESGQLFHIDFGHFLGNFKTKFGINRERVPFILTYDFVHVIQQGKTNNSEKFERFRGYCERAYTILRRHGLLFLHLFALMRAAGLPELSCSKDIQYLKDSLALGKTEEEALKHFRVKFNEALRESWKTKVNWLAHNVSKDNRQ
Sequence (P27986 whole entry partner): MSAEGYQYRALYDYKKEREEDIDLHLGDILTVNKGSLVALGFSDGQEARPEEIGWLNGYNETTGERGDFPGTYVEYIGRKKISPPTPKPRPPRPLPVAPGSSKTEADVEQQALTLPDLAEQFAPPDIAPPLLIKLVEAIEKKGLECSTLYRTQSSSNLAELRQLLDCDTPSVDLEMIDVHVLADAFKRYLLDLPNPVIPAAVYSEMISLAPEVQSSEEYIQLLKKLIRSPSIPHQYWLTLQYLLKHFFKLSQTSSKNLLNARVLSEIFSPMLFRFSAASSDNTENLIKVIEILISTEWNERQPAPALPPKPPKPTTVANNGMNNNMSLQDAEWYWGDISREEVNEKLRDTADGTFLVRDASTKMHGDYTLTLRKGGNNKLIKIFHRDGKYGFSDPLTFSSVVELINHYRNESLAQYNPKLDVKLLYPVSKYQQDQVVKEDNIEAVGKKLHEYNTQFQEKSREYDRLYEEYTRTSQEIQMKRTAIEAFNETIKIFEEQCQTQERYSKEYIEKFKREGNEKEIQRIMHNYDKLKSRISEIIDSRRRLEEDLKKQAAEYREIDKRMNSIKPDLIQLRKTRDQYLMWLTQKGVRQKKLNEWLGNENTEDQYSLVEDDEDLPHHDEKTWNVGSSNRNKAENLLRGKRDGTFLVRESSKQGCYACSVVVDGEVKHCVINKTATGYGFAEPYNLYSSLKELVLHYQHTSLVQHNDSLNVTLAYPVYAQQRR
Assay: TR-FRET enzymatic activity assay, PI3Kδ
Type: biochemical
Conditions: Table 2; TR-FRET, 2x Km ATP, 30 minutes at 25° C.
# log10 transformed; quantity=IC50; unit=nM

## Task Param item = `CC[C@H](Nc1nc(N)nc2[nH]nc(Br)c12)c1nc2c(C#N)cccc2c(=O)n1-c1cc[nH]n1` ; retrieve measured log10(IC50).
## Result 1.54

## Task Param item = `CC[C@H](Nc1nc(N)nc2[nH]nc(Br)c12)c1nc2cccc(C#N)c2c(=O)n1-c1cn[nH]c1` ; retrieve measured log10(IC50).
## Result 2.53

## Task Param item = `Cc1cc(-n2c([C@H](C)Nc3ncnc4scnc34)nc3cccc(Cl)c3c2=O)n[nH]1` ; retrieve measured log10(IC50).
## Result 1.04

## Task Param item = `N#Cc1c(N)nc(N)nc1N1CCC[C@H]1c1nc2cccc(Cl)c2c(=O)n1-c1cn[nH]c1` ; retrieve measured log10(IC50).
## Result 0.95

## Task Param item = `C[C@H](NC(=O)c1c(N)nn2cccnc12)c1nc2cccc(Cl)c2c(=O)n1-c1cc[nH]n1` ; retrieve measured log10(IC50).
## Result 2.04

## Task Param item = `C[C@H](Nc1nc(N)nc(N)c1C#N)c1nc2cccc(Cl)c2c(=O)n1-c1n[nH]cc1Br` ; retrieve measured log10(IC50).
## Result -0.40

## Task Param item = `CC[C@H](Nc1ncnc2scnc12)c1nc2cccc(S(C)(=O)=O)c2c(=O)n1-c1cc[nH]n1` ; retrieve measured log10(IC50).
## Result -0.40
